System: UACC-62 melanoma
method_summary: NCI tumour cell line growth inhibition, 48 h
metric_name: GI50

>>> print(df.to_string())
                    structure_smiles_string  metric_name     result
0  COc1cc(OC)cc(-c2nc3sccn3c2/C=N/N=C(N)N)c1         GI50    8.03 µM
1  Cn1cc(-c2nc(-c3c[nH]c4ccncc34)cs2)c2ccccc21         GI50    1.69 µM
2  COc1ccc(OC)c(NC(=O)c2cccc(NC3=C(Cl)C(=O)N(Cc4ccccc4)C3=O)c2)c1         GI50  > 63.1 µM

Recall the reported GI50 of Cc1ccc2[nH]c3c(c2c1)N=c1ccccc1=NO3 on UACC-62 melanoma and write it down.
36.5 µM

# lookup: UACC-62 melanoma GI50, key = CN(C)C[C@H]1CCn2c(c(C3=C(c4cn(C)c5ccccc45)C(=O)NC3=O)c3ccccc32)C1
4.15 µM

With UACC-62 melanoma as the test system, provide measured GI50 for this compound: C[C@]12CC[C@@H]3c4ccc(O)cc4CC[C@H]3[C@@H]1CC[C@@H]2NS(=O)(=O)c1cccc(Cl)c1
1.86 µM

###

System: HCT-116 colon
method_summary: NCI tumour cell line growth inhibition, 48 h
metric_name: TGI

Look over these answered cases.
In [3]: df
Out[3]:
                                   compound  target_entity  metric_name    result
0  O=C(O)C1CCN(Cc2oc(CO)cc(=O)c2O)C1 (centres undefined)  HCT-116 colon          TGI  > 100 µM
1  Cc1ccc(-c2c(C#N)[n+](=O)c3cc(F)c(F)cc3n2[O-])cc1  HCT-116 colon          TGI   5.21 µM

Answer with the recorded TGI for the compound listed here: O=C1CCCCC/C1=C\c1cccc([N+](=O)[O-])c1
53 µM

Supply recorded TGI for CCn1c(-c2c(Cl)cc(O)cc2Cl)cc2c(Cl)cc(O)cc21 here.
> 100 µM

###

System: RXF 393 renal
method_summary: NCI tumour cell line growth inhibition, 48 h
Classify as follows. Reported TGI greater than or equal to 4 µM: TRUE. Reported TGI below: FALSE.

Some entries whose results are on file:
In [3]: df
Out[3]:
                                   compound  class_label
0  COC1=CC(=O)c2c(cc(COP(N)(=O)N(CCCl)CCCl)n2C)C1=O (centres undefined)        FALSE
1  N#CCCN(CCC#N)c1ccc(/C=C2\SC(=S)NC2=O)cc1         TRUE
2  Nc1ncnc2c1c(-c1ccc(Oc3ccccc3)cc1)nn2C[C@H]1SSC[C@@H]1O         TRUE
3     O=C1CCCCC/C1=C\c1cccc([N+](=O)[O-])c1         TRUE
4  O=C1NC(=O)C(=Cc2c3ccccc3cc3ccccc23)C(=O)N1         TRUE
5  CC(C)(C)c1ccc(O)c(C(c2ccc([N+](=O)[O-])cc2)c2cc(C(C)(C)C)ccc2O)c1        FALSE
6  O=C1/C(=C/c2ccc(F)c(F)c2)CN(C(=O)C(Cl)Cl)C/C1=C\c1ccc(F)c(F)c1        FALSE
7           COc1cc(O)c(C(=O)CC(C)=O)c(OC)c1         TRUE
8  C[C@]12CC[C@@H]3c4ccc(O)cc4CC[C@H]3[C@@H]1CC[C@@H]2NS(=O)(=O)c1cccc(Cl)c1         TRUE
9  CCn1c(-c2ccc(OC)cc2)nc2c1C(=O)c1ccccc1C2=O         TRUE

Does O=C(O)/C=C/c1ccc[c]([Sb](=[O])([OH])[OH])c1 have a reported TGI of at least 4 µM?
TRUE

I'd appreciate it if you could say whether NC(=S)Nc1ccc2c(c1)oc1ccccc12 has TGI at least equal to 4 µM.
TRUE

Evaluate COC(=O)CCCC1(CCCC(=O)OC)CCCCCCCCC(CCCC(=O)OC)(CCCC(=O)OC)C(=O)C1=O : TGI at minimum 4 µM?
TRUE

Is reported TGI greater than or equal to 4 µM here: O=C(/C=C/c1ccc2c(c1)OCO2)NCCc1ccco1
TRUE

Form field: TGI at least 4 µM? Entry: O=C1C(C(c2ccc([N+](=O)[O-])cc2)N2CCOCC2)=C(O)C(c2ccccc2)N1c1ccccc1 (centres undefined)
TRUE

Check if TGI >= 4 µM (inclusive). Item: O=C(N/N=C\c1cccs1)c1ccncc1
TRUE

Reported TGI reaches at least 4 µM for Fc1ccc2[nH]cc(-c3nc(-c4c[nH]c5ccncc45)cs3)c2c1 ?
FALSE

Item COc1cc2c3c(n(CCCCNC(=O)OC(C)(C)C)c(=O)c2cc1OC)-c1cc2c(cc1C3=O)OCO2 with TGI of 4 µM or above?
TRUE

Quick check: does O=c1c(Nc2ccccc2)cn(CCOc2ccc(Cl)cc2)c(=O)n1CCOc1ccc(Cl)cc1 have TGI greater than or equal to 4 µM?
TRUE

Is TGI for CCNc1cc2oc(=O)cc(C(F)(F)F)c2cc1C at or above 4 µM?
TRUE

Could you tell me if the measured TGI of O=C(O)C(Br)C(Br)C(=O)O (centres undefined) reaches 4 µM or more?
TRUE

Please tell me: is the compound C=C1C(=O)O[C@H]2[C@H]1CC/C(COC(=O)c1cn(C)c3ccccc13)=C\CC[C@@]1(C)O[C@@H]21 at or over 4 µM in terms of TGI?
FALSE

Record O=C(N/C(=C\c1c(O)ccc2ccccc12)c1nc2ccccc2[nH]1)c1ccccc1 ; criterion: TGI no lower than 4 µM. Met?
TRUE

Does TGI meet or surpass 4 µM for CC1(C)Oc2ccc3c(=O)cc(-c4cccs4)oc3c2C1C(=O)O (centres undefined) ?
TRUE

Hi team, for COC1(OC)C2(Cl)C(Cl)=C(Cl)C1(Cl)C1c3ccc(C(C)=O)c4cccc(c34)C12 (centres undefined) , is the recorded TGI at or above 4 µM?
TRUE

Hi, just wondering whether COc1cc(OC)cc(-c2nc3sccn3c2/C=N/N=C(N)N)c1 shows TGI of 4 µM or higher.
TRUE

Reported TGI at or above 4 µM? CCO/C(CCn1[nH]c(=O)c(Cl)c(Cl)c1=O)=N\NC(=O)C(=O)NN
TRUE

Given COc1cc(NS(C)(=O)=O)ccc1NCc1cnc2ccc3[nH]cccc3c12 , state whether its TGI is at least 4 µM.
TRUE
